Give Kochia plant response rating for every item shown.
System: kochia (Kochia scoparia)
Assay details: Test A greenhouse herbicide test, pre- and postemergence
Assay type: in vivo
Applied conditions: Postemergence, 500 g ai/ha; 0 to 100 scale, 0 is no effect, 100 is complete control
Reply with the value as a number alone.

q: Bench note: what Kochia plant response rating did `CCC(=O)Oc1c(C)nn(C)c(=O)c1-c1ccc(Cl)c2ccccc12` show?
a: 100

q: Value lookup for Kochia plant response rating; key = `Cc1sc2ccccc2c1-c1c(O)c(Cl)nn(C)c1=O`
a: 90

q: Please report the recorded Kochia plant response rating for `Cc1ccc2ccccc2c1-c1c(O)c(I)nn(C)c1=O` .
a: 90

q: Dear colleague, I am looking for the recorded Kochia plant response rating of the following compound: `CCC(=O)Oc1c(C)nn(C)c(=O)c1-c1c(C)ccc2ccccc12`
a: 90

q: Look up Kochia plant response rating for this compound: `CCc1ccc2ccccc2c1-c1c(OC(=O)C2CC2)c(C)nn(C)c1=O`
a: 80

---

Test system: galium (catchweed bedstraw, Galium aparine)
Assay details: Test C greenhouse herbicide test, pre- and postemergence
Format: in vivo
Applied conditions: postemergence, 62 g ai/ha; scale 0 to 100, 0 no effect, 100 complete control
For each record, write down the corresponding Galium plant response rating.
Could you respond with only the numeric value?

q: I am curious: what Galium plant response rating value has been reported for `Cc1nn(C)c(=O)c(-c2cccc3ccccc23)c1O` ?
a: 90

q: Recorded Galium plant response rating of `Cn1nc(Br)c(O)c(-c2cccc3ccccc23)c1=O` , please.
a: 100

q: Entry `COC(=O)Oc1c(C)nn(C)c(=O)c1-c1c(C)sc2ccc(C)cc12` : reported Galium plant response rating = ?
a: 95

q: What value of measured Galium plant response rating is listed for `CCc1sc2c(C)cc(C)cc2c1-c1c(O)c(C)nn(C)c1=O` ?
a: 95

q: Param item = `CCc1oc2ccc(C)cc2c1-c1c(O)c(C)nn(C)c1=O` ; retrieve measured Galium plant response rating.
a: 50

q: Name the recorded Galium plant response rating for `Cc1cc(C)c2sc(C)c(-c3c(O)c(C)nn(C)c3=O)c2c1` .
a: 95

q: Fill in the blank: the reported Galium plant response rating of `Cc1nn(C)c(=O)c(-c2c(C)sc3ccc(Br)cc23)c1O` is ____.
a: 90

q: Bench note: what Galium plant response rating did `CCc1ccc2ccccc2c1-c1c(O)c(C)nn(C)c1=O` show?
a: 100

q: Suppose we examine the molecule `CC(=O)Oc1c(C)nn(C)c(=O)c1-c1c(C)cc(C)c2ccccc12` ; what Galium plant response rating value has been reported?
a: 95

q: Please report the recorded Galium plant response rating for `Cc1ccc2ccccc2c1-c1c(O)c(I)nn(C)c1=O` .
a: 95

q: Tell me the measured Galium plant response rating of `CCC(=O)Oc1c(C)nn(C)c(=O)c1-c1c(C)ccc2ccccc12` , please.
a: 80

---

System: velvetleaf (Abutilon theophrasti)
Assay details: Test C greenhouse herbicide test, pre- and postemergence
Type: in vivo
Applied conditions: Preemergence, 250 g ai/ha; scale 0 to 100, 0 no effect, 100 complete control
Parameter measured: Velvetleaf plant response rating
Would you mind answering with just the numeric figure?

q: Suppose we examine the compound Cc1ccc2ccccc2c1-c1c(O)c(C(F)(F)F)nn(C)c1=O [Compound 102] ; what Velvetleaf plant response rating value has been reported?
a: 100

q: Return reported Velvetleaf plant response rating; argument: Cc1cc2ccccc2c(-c2c(O)c(C)nn(C)c2=O)c1C [Compound 34]
a: 98

q: Would you mind telling me what Velvetleaf plant response rating value was observed for CC(=O)Oc1c(Cl)nn(C)c(=O)c1-c1c(C)sc2ccc(C(F)(F)F)cc12 [Compound 152] ?
a: 75

q: Which Velvetleaf plant response rating is listed for Cc1nn(C)c(=O)c(-c2ccc(F)c3ccccc23)c1O [Compound 41] ?
a: 98

q: // lookup Velvetleaf plant response rating for CC(=O)Oc1c(C)nn(C)c(=O)c1-c1c(C)sc2ccc(C(F)(F)F)cc12 [Compound 132]
a: 95

q: Request the reported Velvetleaf plant response rating associated with Cc1nn(C)c(=O)c(-c2c(C)sc3ccc(Br)cc23)c1O [Compound 22]
a: 98

---

Tested on: canarygrass (Phalaris minor)
Assay details: Test D controlled growth environment herbicide test, pre- and postemergence
Format: in vivo
Applied conditions: Postemergence, 31 g ai/ha; scale 0 to 100 (0 no effect, 100 complete control)
Would you mind telling me the reported Canarygrass plant response rating of each entry?
// no unit, no text: just the number

q: Need Canarygrass plant response rating, item `Cc1nn(C)c(=O)c(-c2c(C)sc3c(C)cc(Cl)cc23)c1O`
a: 20

q: State the recorded Canarygrass plant response rating for this entry: `Cc1nn(C)c(=O)c(-c2cccc3ccc(Br)cc23)c1O`
a: 20

q: Requested field: Canarygrass plant response rating. Item: `Cc1nn(C)c(=O)c(-c2c(C)sc3ccc(Br)cc23)c1O`
a: 20

---

Exercise: state measured Plant response rating, Nutsedge, Yellow for each of the molecules provided.
Tested on: nutsedge, yellow (yellow nutsedge, Cyperus esculentus)
Assay details: Test C greenhouse herbicide test, pre- and postemergence
Format: in vivo
Applied conditions: Preemergence, 125 g ai/ha; scale 0 to 100, 0 is no effect, 100 is complete control
Please reply with the number alone, leaving off any unit.

q: Would you kindly share the measured Plant response rating, Nutsedge, Yellow for `CCC(=O)Oc1c(C)nn(C)c(=O)c1-c1ccc(F)c2ccccc12` ?
a: 85

q: Request the reported Plant response rating, Nutsedge, Yellow associated with `Cc1cc2ccccc2c(-c2c(O)c(C)nn(C)c2=O)c1C`
a: 35

q: // returns reported Plant response rating, Nutsedge, Yellow for input `Cc1ccc2sc(C)c(-c3c(OC(=O)OC(C)C)c(C)nn(C)c3=O)c2c1`
a: 30

q: Requested field: Plant response rating, Nutsedge, Yellow. Item: `CCc1ccc2ccccc2c1-c1c(O)c(C)nn(C)c1=O`
a: 45

---

Test system: ryegrass, Italian (Italian ryegrass, Lolium multiflorum)
Assay details: Test C greenhouse herbicide test, pre- and postemergence
Assay type: in vivo
Applied conditions: Postemergence, 250 g ai/ha; scale 0 to 100, 0 no effect, 100 complete control; 13 to 15 d
For each entry below, report its Plant response rating, Ryegrass, Italian value.

q: Given the molecule CCC(=O)Oc1c(C)nn(C)c(=O)c1-c1c(C)ccc2ccccc12 [Compound 78] , what is its reported Plant response rating, Ryegrass, Italian?
a: 90

q: Entry COC(=O)Oc1cnn(C)c(=O)c1-c1c(C)sc2ccccc12 [Compound 97] : reported Plant response rating, Ryegrass, Italian = ?
a: 55

q: Request the reported Plant response rating, Ryegrass, Italian associated with CCCC(=O)Oc1c(C)nn(C)c(=O)c1-c1c(C)sc2ccc(C)cc12 [Compound 105]
a: 80

---

Please respond with reported Plant response rating, Deadnettle for every item in the list.
Tested on: deadnettle (henbit deadnettle, Lamium amplexicaule)
Assay details: Test D controlled growth environment herbicide test, pre- and postemergence
Assay type: in vivo
Applied conditions: Preemergence, 125 g ai/ha; scale 0 to 100 (0 no effect, 100 complete control)
// print number alone

q: What value of Plant response rating, Deadnettle has been recorded for this entry: `Cc1ccc2sc(Br)c(-c3c(O)c(C)nn(C)c3=O)c2c1`
a: 100

q: Endpoint output: Plant response rating, Deadnettle of `Cc1nn(C)c(=O)c(-c2cccc3ccccc23)c1O` . Value?
a: 50

q: Sample `Cc1cc2ccccc2c(-c2c(O)c(C)nn(C)c2=O)c1C` — what was its Plant response rating, Deadnettle?
a: 50

---

Tested on: soybean (Glycine max)
Assay details: Test E greenhouse herbicide test, pre- and postemergence
Assay type: in vivo
Applied conditions: 125 g ai/ha, Preemergence; scale 0 to 100 (0 no effect, 100 complete control)
Field: Plant response rating, Soybean. Provide a value for each of the compounds that follow.
Reply with the value as a number alone.

q: Value lookup for Plant response rating, Soybean; key = `Cc1cc(C)c2ccccc2c1-c1c(O)c(C)nn(C)c1=O`
a: 35

q: Name the reported Plant response rating, Soybean value associated with the compound `CCc1sc2c(C)cc(C)cc2c1-c1c(O)c(C)nn(C)c1=O`
a: 0

q: Record request: Plant response rating, Soybean value, item `Cc1cc2ccccc2c(-c2c(O)c(C)nn(C)c2=O)c1C`
a: 15

q: GET /values?readout=Plant response rating, Soybean&item= `Cc1cc(C)c2sc(C)c(-c3c(O)c(C)nn(C)c3=O)c2c1`
a: 15

q: Which Plant response rating, Soybean value is on record for `Cc1ccc2ccccc2c1-c1c(OC(=O)OC(C)C)c(C)nn(C)c1=O` ?
a: 0

---

Record form. Attribute: Plant response rating, Deadnettle. Fill in for each entry.
System: deadnettle (henbit deadnettle, Lamium amplexicaule)
Assay details: Test D controlled growth environment herbicide test, pre- and postemergence
Assay type: in vivo
Applied conditions: Postemergence, 250 g ai/ha; scale 0 to 100 (0 no effect, 100 complete control)
Output spec: single numeric token, no unit.

q: Requested field: Plant response rating, Deadnettle. Item: `Cc1cc(C)c2sc(C)c(-c3c(O)c(C)nn(C)c3=O)c2c1`
a: 60

q: May I ask what Plant response rating, Deadnettle has been recorded for `Cc1nn(C)c(=O)c(-c2cccc3ccc(Br)cc23)c1O` ?
a: 85

q: Form field: reported Plant response rating, Deadnettle of `Cc1nn(C)c(=O)c(-c2ccc(Br)c3ccccc23)c1O`
a: 100
